Assay: In vivo kinetics experiment (radioactivity distribution)
Parameters: species or system Wistar male rat
Conditions: 30 min after administration; rat i.v.; mean ± SD
Record MET whenever Radioactivity distribution Lung is at 0.7 % ID/g or higher; record NOT MET when lower.

Given the entry FCCn1c(-c2cncc(Cn3ccnc3)c2)nc2ccc([123I])cc21 [[^123I] 604] , answer whether its Radioactivity distribution Lung meets or surpasses 0.7 % ID/g.
MET

Given the entry FCCn1c(-c2cncc(Cn3cncc3[123I])c2)nc2cc(F)c(Cl)cc21 [[^123I] 610] , answer whether its Radioactivity distribution Lung meets or surpasses 0.7 % ID/g.
NOT MET

Given the entry COc1cc([123I])cc2c1nc(-c1cncc(Cn3ccnc3)c1)n2C1CC1 [[^123I] 609] , answer whether its Radioactivity distribution Lung meets or surpasses 0.7 % ID/g.
NOT MET

Given the entry CC(C)n1c(-c2cncc(Cn3ccnc3)c2)nc2ccc([123I])cc21 [[^123I] 606] , answer whether its Radioactivity distribution Lung meets or surpasses 0.7 % ID/g.
NOT MET

Given the entry Fc1cc2nc(-c3cncc(Cn4ccnc4)c3)n(Cc3ccc([123I])cc3)c2cc1Cl [[^123I] 605] , answer whether its Radioactivity distribution Lung meets or surpasses 0.7 % ID/g.
MET

Given the entry CCn1c(-c2cncc(Cn3ccnc3)c2)nc2ccc([123I])cc21 [[^123I] 608] , answer whether its Radioactivity distribution Lung meets or surpasses 0.7 % ID/g.
MET

Given the entry COC(=O)c1cncn1[C@H](C)c1ccc(I)cc1 [[^123I] IMTO, (R)-[^123I]iodometomidate, reference compound] , answer whether its Radioactivity distribution Lung meets or surpasses 0.7 % ID/g.
MET

###

Assay: In vivo kinetics experiment (radioactivity distribution)
Parameters: species or system Wistar male rat
Conditions: rat, caudal vein, 60 min after administration
For each record, write down the corresponding Radioactivity distribution Whole brain.
Form field: result (number plus unit)

For the molecule Fc1cc2nc(-c3cncc(Cn4ccnc4)c3)n(CC[18F])c2cc1Br [[^18F] 200] , what Radioactivity distribution Whole brain is on record?
0.01 ± 0.00 % ID/g

For the molecule Fc1cc2nc(-c3cncc(Cn4ccnc4)c3)n(CC[18F])c2cc1Cl [[^18F] 100] , what Radioactivity distribution Whole brain is on record?
0.02 ± 0.00 % ID/g

For the molecule [123I]c1ccc2nc(-c3cncc(Cn4ccnn4)c3)n(C3CC3)c2c1 [[^123I] 603] , what Radioactivity distribution Whole brain is on record?
0.01 ± 0.00 % ID/g

For the molecule Fc1cc2nc(-c3cncc(Cn4ccnc4)c3)n(CCC[18F])c2cc1Cl [[^18F] 500] , what Radioactivity distribution Whole brain is on record?
0.02 ± 0.00 % ID/g

For the molecule FCCn1c(-c2cncc(Cn3ccnc3)c2)nc2cc(F)c([123I])cc21 [[^123I] 400] , what Radioactivity distribution Whole brain is on record?
0.02 ± 0.00 % ID/g

For the molecule [123I]c1ccc2nc(-c3cncc(Cn4ccnc4)c3)n(C3CC3)c2c1 [[^123I] 602] , what Radioactivity distribution Whole brain is on record?
0.02 ± 0.00 % ID/g

###

Assay: In vivo kinetics experiment (radioactivity distribution)
Set-up: species or system Wistar male rat
Details: 10 min after administration; rat i.v.; mean ± SD
For each record, write down the corresponding Radioactivity distribution Lung.
Write it as a number; the unit % ID/g goes unstated.

For the compound Fc1cc2nc(-c3cncc(Cn4ccnc4)c3)n(Cc3ccc([123I])cc3)c2cc1Cl [[^123I] 605] , what Radioactivity distribution Lung is on record?
1.94

For the compound CC(C)n1c(-c2cncc(Cn3ccnc3)c2)nc2ccc([123I])cc21 [[^123I] 606] , what Radioactivity distribution Lung is on record?
0.86

For the compound COc1cc([123I])cc2c1nc(-c1cncc(Cn3ccnc3)c1)n2C1CC1 [[^123I] 609] , what Radioactivity distribution Lung is on record?
0.51

For the compound FCCn1c(-c2cncc(Cn3cncc3[123I])c2)nc2cc(F)c(Cl)cc21 [[^123I] 610] , what Radioactivity distribution Lung is on record?
0.49

For the compound COC(=O)c1cncn1[C@H](C)c1ccc(I)cc1 [[^123I] IMTO, (R)-[^123I]iodometomidate, reference compound] , what Radioactivity distribution Lung is on record?
0.72

For the compound FCCn1c(-c2cncc(Cn3ccnc3)c2)nc2ccc([123I])cc21 [[^123I] 604] , what Radioactivity distribution Lung is on record?
0.98

For the compound Cn1c(-c2cncc(Cn3ccnc3)c2)nc2ccc([123I])cc21 [[^123I] 607] , what Radioactivity distribution Lung is on record?
0.90

For the compound CCn1c(-c2cncc(Cn3ccnc3)c2)nc2ccc([123I])cc21 [[^123I] 608] , what Radioactivity distribution Lung is on record?
1.11
